Provide the reported pIC50 of each item.
Target: Full-length inactive AKT1 (Homo sapiens, UniProt P31749)
Sequence (P31749 whole entry): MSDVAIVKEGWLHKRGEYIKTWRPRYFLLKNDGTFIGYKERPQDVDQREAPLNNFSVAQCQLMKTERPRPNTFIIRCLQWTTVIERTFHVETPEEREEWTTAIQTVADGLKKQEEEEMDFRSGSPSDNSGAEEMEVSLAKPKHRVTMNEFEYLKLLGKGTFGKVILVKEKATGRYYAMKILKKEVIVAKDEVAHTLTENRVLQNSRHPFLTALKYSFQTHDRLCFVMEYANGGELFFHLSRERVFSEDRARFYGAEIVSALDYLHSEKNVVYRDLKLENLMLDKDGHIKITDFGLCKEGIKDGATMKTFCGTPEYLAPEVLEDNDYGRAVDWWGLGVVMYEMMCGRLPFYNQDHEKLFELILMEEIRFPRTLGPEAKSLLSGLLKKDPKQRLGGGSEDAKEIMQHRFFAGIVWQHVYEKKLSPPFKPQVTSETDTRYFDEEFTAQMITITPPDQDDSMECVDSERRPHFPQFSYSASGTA
Test: Inactive Akt Alpha Screen Assay
Type: biochemical
Details: values not marked with "*"; read-out: Akt1 IC50, (AlphaScreen)
Give bare numbers, as −log10 of the molar value.

Consider the following illustrative entries.
>>> observed("Cc1cnc2c(c1)nc(-c1cccnc1N)n2-c1ccc(CNC(=O)c2cnccn2)cc1")
6.07
>>> observed("CNC(=O)c1ccc(-c2ccc3nc(-c4cccnc4N)n(-c4ccc(C5(N)CCC5)cc4)c3n2)cc1")
7.89
>>> observed("Cc1cnc2c(c1)nc(-c1cccnc1N)n2-c1ccc(CNC(=O)c2ccccc2C(F)(F)F)cc1")
7.15

For each entry beneath this line, provide reported pIC50.
1. COc1cccc(-c2ccc3nc(-c4cccnc4N)n(-c4ccc(C5(N)CCC5)cc4)c3n2)c1O
2. Nc1ncccc1-c1nc2ccc(Cl)nc2n1-c1ccc(CNC(=O)c2cccc(F)c2)cc1
3. Nc1ncccc1-c1nc2ccc(-c3ccccc3)nc2n1-c1ccc(CNC(=O)c2ccccc2)cc1

## Result
8.42
7.09
7.57

For each entry beneath this line, provide reported pIC50.
1. Cc1ccc2cc(C(=O)NCc3ccc(-n4c(-c5cccnc5N)nc5ccc(C)nc54)cc3)ccc2n1
2. NC(=O)c1ccc(-c2ccc3nc(-c4cccnc4N)n(-c4ccc(C5(N)CCC5)cc4)c3n2)cc1
3. CC(=O)Nc1ccc(C(=O)NCc2ccc(-n3c(-c4cccnc4N)nc4cc(C)cnc43)cc2)cc1
4. COc1ccc(F)c(-c2ccc3nc(-c4cccnc4N)n(-c4ccc(C5(N)CCC5)cc4)c3n2)c1
5. Cc1cc2nc(-c3cccnc3N)n(-c3ccc(CNC(=O)c4ccccc4)cc3)c2nc1-c1ccccc1
6. Cc1cnc2c(c1)nc(-c1cccnc1N)n2-c1ccc(CNC(=O)c2cncnc2)cc1
7. Nc1ncccc1-c1nc2cc(-c3cccnc3)cnc2n1-c1ccc(CNS(=O)(=O)c2ccccc2)cc1
8. Nc1ncccc1-c1nc2ccc(-c3ccc4cc[nH]c4c3)nc2n1-c1ccc(CNC(=O)c2cccc(F)c2)cc1

## Result
[6.96, 8.06, 7.27, 8.15, 7.36, 6.19, 7.13, 6.38]

For each entry beneath this line, provide reported pIC50.
1. N#Cc1cccc(NC(=O)c2ccc(-n3c(-c4cccnc4N)nc4cccnc43)cc2)c1
2. CC(=O)Nc1ccc(C(=O)NCc2ccc(-n3c(-c4cccnc4N)nc4ccc(C)nc43)cc2)cc1
3. Nc1ncccc1-c1nc2cc(C(F)(F)F)cnc2n1-c1ccc(CNC(=O)c2ccccc2)cc1
4. Nc1ncccc1-c1nc2cc(Br)cnc2n1-c1ccc(CNS(=O)(=O)c2ccccc2F)cc1
5. Nc1ncccc1-c1nc2cc(-c3ccc(CO)cc3)cnc2n1-c1ccc(CNC(=O)c2ccccc2)cc1
6. CCOC(=O)c1cccc(-c2ccc3nc(-c4cccnc4N)n(-c4ccc(C5(N)CCC5)cc4)c3n2)c1

## Result
5.82
7.60
6.70
6.46
7.59
8.80

For each entry beneath this line, provide reported pIC50.
1. CC(=O)Nc1ccc(NC(=O)Cc2ccc(-n3c(-c4cccnc4N)nc4cc(C)cnc43)cc2)cc1
2. CC(=O)Nc1cccc(NC(=O)Cc2ccc(-n3c(-c4cccnc4N)nc4ccc(-c5cccnc5)nc43)cc2)c1
3. Cc1ccc2cc(C(=O)NCc3ccc(-n4c(-c5cccnc5N)nc5cc(-c6cccnc6)cnc54)cc3)ccc2n1
4. Cc1ccc2cc(NC(=O)Cc3ccc(-n4c(-c5cccnc5N)nc5cc(-c6cccnc6)cnc54)cc3)ccc2n1
5. CC(=O)Nc1cccc(-c2ccc3nc(-c4cccnc4N)n(-c4ccc(CNS(=O)(=O)c5ccccc5)cc4)c3n2)c1
6. Cc1ccc2cc(NC(=O)c3ccc(-n4c(-c5cccnc5N)nc5cccnc54)cc3)ccc2n1

## Result
1. 7.21
2. 7.77
3. 7.66
4. 7.72
5. 7.85
6. 6.23
